# method summary: 50% lethal dose for inhibition of KB cells growth
# Type: cell-based
# study conditions: human, read-out: LD50 (the source's name)
observation type: CC50

The cases that follow already have their CC50 on record.
Item `CCCCCCCCCCC(O)(P(=O)(O)O)P(=O)(O)O` has what recorded CC50? > 806 µM

Here is the next compound: CN(C)CCC(O)(P(=O)(O)O)P(=O)(O)O [OLPADRONIC ACID] > 1050 µM

Here is the next compound: `CCCC(O)(P(=O)(O)O)P(=O)(O)O` > 967 µM

Here is the next compound: `CC(C)CCNC(P(=O)(O)O)P(=O)(O)O` > 1150 µM

Here is the next compound: CCCCCNC(P(=O)(O)O)P(=O)(O)O [(PENTYLAMINO)METHYLENEDIPHOSPHONIC ACID] > 1150 µM

Here are 3 compounds. What values of CC50 were reported for them?
1. O=P(O)(O)C(O)(CSc1ccncc1)P(=O)(O)O
2. O=P(O)(O)C(O)(CCc1cccnc1)P(=O)(O)O
3. CCCCCC(O)(P(=O)(O)O)P(=O)(O)O

> 746 µM
> 804 µM
> 993 µM

Here are 2 compounds. What values of CC50 were reported for them?
1. O=P(O)(O)C(Nc1ccc(Cl)cn1)P(=O)(O)O
2. O=P(O)(O)C(O)(Cc1ccccc1)P(=O)(O)O

> 992 µM
> 931 µM
